tested on: HEK-293T; experiment: Incucyte cell viability with HEK293T; assay type: toxicity, cell-based; conditions: human, 6 h, 10 µM, compound concentration 10 uM, replicate number 2; also: unitless GR value; below 1 slowed growth and below 0 cell loss
Binarize Growth Rate at 0.3; below is class 1, at or above is class 0.

Answered examples (6):
1. CCc1ncnc(N2CCN(C(C)=O)CC2)c1C#Cc1ccc(N)nc1.Cl.Cl : class 1
2. Cn1c(=O)n(CCCO)c(=O)c2c1nc(Oc1cccc(Cl)c1)n2Cc1ccc(Cl)cc1 : class 1
3. CC(=O)c1c(C)c2cnc(Nc3ccc(N4CCNCC4)cn3)nc2n(C2CCCC2)c1=O [PALBOCICLIB] : class 0
4. C[C@H]1CN(C2COC2)CCN1c1ccc(Nc2cc(-c3ccnc(N4CCn5c(cc6c5CC(C)(C)C6)C4=O)c3CO)cn(C)c2=O)nc1 [FENEBRUTINIB] : class 0
5. CC[C@]1(C)C[C@@H](OC(=O)CSc2nnc(N)[nH]2)[C@@]2(C)[C@H](C)CC[C@@]3(CCC(=O)[C@H]32)[C@@H](C)[C@@H]1O : class 0
6. CC(=O)N1CCN([C@H]2CCC[C@@H](NC(=O)c3cc4c(F)ccc(C)c4[nH]3)C2)CC1.O=C(O)C(F)(F)F : class 0

Next:
Req: Report whether reported Growth Rate is lower than 0.3 (strictly) for `CCS(=O)(=O)Nc1cccc(Oc2cc(F)cc(Nc3ccc(I)cc3F)c2NS(=O)(=O)C2CC2)c1`
Resp: class 1

====

tested on: HEK-293T; experiment: Incucyte cell viability with HEK293T; format: toxicity, cell-based; conditions: human, 6 h, 10 µM, compound concentration 10 uM, replicate number 1; also: unitless GR value; below 1 slowed growth and below 0 cell loss
Decision: Growth Rate beneath 0.6 gives Satisfied; Growth Rate meeting or exceeding 0.6 gives Not satisfied.

Below, 5 compounds whose answers are already recorded.
1) Nc1ncc2c(n1)-c1c([nH]c3ccc(C4CC4)cc13)CCCC2 : Satisfied
2) Cc1c(CN2CCC3(CC2)CN(c2ncnc4sc(CC(F)(F)F)cc24)C3)ccc2c1cc(C#N)n2CC(N)=O : Satisfied
3) COc1c(C(=O)/C=C/c2ccccc2)c(O)c(OC)c2occc12 : Satisfied
4) CC[C@H](NC(=O)[C@H](C)NC)C(=O)N1C[C@@H](O)C[C@H]1Cc1c(-c2[nH]c3cc(F)ccc3c2C[C@@H]2C[C@H](O)CN2C(=O)[C@H](CC)NC(=O)[C@H](C)NC)[nH]c2cc(F)ccc12 : Not satisfied
5) COc1cc(N)c(Cl)cc1C(=O)NC1CN2CCC1CC2.Cl (stereo not drawn) : Satisfied

Req: Consider Cl.Cl.N=C(N)NCCC[C@H](NC(=O)CC1(CC(=O)N2CCN(C3c4ccccc4NC(=O)c4ccccc43)CC2)CCCC1)C(=O)NCCn1c(=O)n(-c2ccccc2)n(-c2ccccc2)c1=O (stereo partly drawn) . Does its Growth Rate lie strictly below 0.6?
Resp: Satisfied

Req: Growth Rate strictly < 0.6 for this compound? `O=S(=O)(Nc1nnc2cc(OCC34CC5CC(CC(C5)C3)C4)c(C3CC3)cn12)C1CC1`
Resp: Not satisfied

Req: Given the entry `N[C@@H]1CCCC[C@H]1Oc1ccc2ncc(-c3cc4ccccc4o3)n2n1` , would its reported Growth Rate be below 0.6?
Resp: Satisfied

====

system: Fibroblast; test: Incucyte cell viability with human fibroblast; format: toxicity, cell-based; conditions: 0 h, 10 µM, compound concentration 10 uM, replicate number 1; also: unitless GR value; below 1 slowed growth and below 0 cell loss
Each entry below carries its reported Growth Rate.
No unit in the answer, only the number.

The following molecules have reported results that may help.
1. CCN1CCN(Cc2ccc(NC(=O)Nc3ccc(Oc4cc(NC)ncn4)cc3)cc2C(F)(F)F)CC1 : 0.93
2. CNC(=O)c1cc(C(=O)NC2CC2)cn(Cc2ccccc2)c1=O : 0.38
3. CC(C)(C)c1cc(NC(=O)c2csc(Nc3ccc(Cl)cc3)n2)no1 : -1
4. NCC1CCC(CNc2nc(NCc3ccccc3OC(F)(F)F)ncc2[N+](=O)[O-])CC1 (configuration not stated) : -0.85
5. COc1cc2ncnc(N[C@H](C)c3ccccc3)c2cc1OC1CCN(S(C)(=O)=O)CC1.Cl : 0.4
6. Cn1ncc(NC(=O)c2nc(-c3c(F)cccc3F)sc2N)c1N1CC[C@@H](N)[C@H](F)CC1 : -1
7. O=C(O)c1ccc(S(=O)(=O)N(Cc2ccc(OC(F)(F)F)cc2)c2ncc(C(F)(F)F)cc2Cl)cc1 : 0.4
8. C[C@H](CCC(=O)O)[C@H]1CC[C@H]2[C@@H]3CC[C@@H]4C[C@H](O)CC[C@]4(C)[C@H]3C[C@H](O)[C@]12C : 0.67
9. CO[C@H](C)CN1CC[C@]2(C)c3cccc(O)c3C[C@H]1C2(C)C.Cl : -1
10. CS(=O)(=O)NCC[C@H](NC(=O)c1cncc2c1cnn2-c1ccc(F)cc1)c1ccnc(S(C)(=O)=O)c1 : -0.98

Req: What value of Growth Rate has been reported for the following molecule? `Nc1n[nH]c2nc(-c3ccc(NS(=O)(=O)c4cccc(Cl)c4Cl)cc3)cnc12`
Resp: 0.67

Req: May I ask what Growth Rate has been recorded for CCCCc1oc2ccccc2c1C(=O)c1cc(I)c(OCCN(CC)CC)c(I)c1.Cl [AMIODARONE HYDROCHLORIDE] ?
Resp: 0.24
